Biological target: T1, biotinylated IL-22 with an N-terminal His/FLAG tag (bio.IL-22H/F) (human, UniProt Q9GZX6 34-179, biotinylated (site not stated))
T1 construct: not shown: N-terminal His/FLAG tag
T1 sequence: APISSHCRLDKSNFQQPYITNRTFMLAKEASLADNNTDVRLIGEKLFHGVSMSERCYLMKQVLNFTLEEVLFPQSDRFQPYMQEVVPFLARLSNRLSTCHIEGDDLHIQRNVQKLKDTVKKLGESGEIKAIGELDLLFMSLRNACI
Assay: biotinylated IL-22 binding IL-22 receptor complex competition assay, purified scFv, parent
quantity-kind: pIC50
Give only the number. pIC50 is defined as minus log10 of concentration in molar units.

Would you please look over these solved cases?
>>> result_number("GIL16 scFv (non-germlined parent) (scFv) scFv: QVQLVESGAEVKKPGASVKVSCKASGYTFTSYGISWVRQAPGQGLEWMGWISAYTGNTNYAQKFQGRVTMTTDTSTSTAYMELRSLRSDDTAVYYCARDRGYYDAFDIWGQGTLVTVSSGGGGSGGGGSGGGGSDIQMTQSPSTLSASIGDRVTITCRASEGIYHWLAWYQQKPGKAPKLLIYKASSLASGAPSRFSGSGSGTDFTLTISSLQPDDFATYYCQQYSNYPLTFGGGTKLEIKRAAA")
7.36
>>> result_number("GIL92 scFv (non-germlined parent) (scFv) scFv: QVQLVQSGAEVKKPGASVKVSCKASGYTFTDYYMHWVRQAPGQGLEWVGWINPYTGGAFYAQKFRGRVTMTRDTSINTAYMELSRLGSDDTAVYYCAREPEKFDFWGGDNWGRGTMVTVSSGGGGSGGGGSGGGGSAQAVLTQPSSVSGAPGQRVTISCTGSSSNIGAGYGVHWYQQLPGTAPKLLIYGNSNRPSGVPDRFSGSKSGTSASLAITGLQAEDEADYYCQSYDSSLSGYVFGTGTQLTVLSAAA")
7.74
>>> result_number("GIL68 scFv (non-germlined parent) (scFv) scFv: EVQLVQSGAEVKKPGASVKVSCQASGYTFSDYYIHWVRQTPGQGFEWMGWVNPDTGGTRYAQKFQGWVTMTRDMSNTTAYMELPRLRDDDTAVYYCARDLTGFDPFDIWGQGTLVTVSSGGGGSGGGGSGGGGSAQSVLTQPPSVSVAPGKTATITCGGNNFRNKRVHWYQQRPGQAPVLVIYYDSDRPSGIPERFSGSRSGNTATLTISRVEAGDEADFYCQVWDSSTDRPLFGGGTKLTVLGAAA")
8.05

Problem: If you can, please state the reported pIC50 value of GIL01 scFv (non-germlined parent) (scFv, also called GIL 1) scFv: EVQLVESGGGLVTPGGSLRLSCAASGFTFSDYYMSWIRQAPGRGLEWVSAISGSGGSTYYADSVKGRITISRDNAKNSLYLQMSSLRSEDTAVYYCARGLWVWDPLDYWGRGTLVTVSSGGGGSGGGGSGGGGSDIQMTQSPSTLSASIGDRVTITCRASEGIYHWLAWYQQKPGKAPKLLIYKASSLASGAPSRFSGSGSGTDFTLTISSLQPDDFATYYCQQYSNYPLTFGGGTKLEIKRAAA .
Result: 6.91

Problem: What measured pIC50 goes with GIL60 scFv (non-germlined parent) (scFv) scFv: EVQLVESGGGVVRPGGSLRLSCAASGFTFDDYGMNWVRQAPGKGLEWVSGVNGNGGTRDYAASVKGRFTISRDNAKNSLYLQMNSLRAEDTALYYCARGWYSGSFYYFGYWGRGTLVTVSSGGGGSGGGGSGGGGSAQAVLTQPSSVSGSPGQSITISCTGASGDVGAYNFVSWYQQHPGKTPKLIIYDVNKRPSGVSNRFSGSKSGNTASLTISGLQAEDESDYYCSSYTSTFSVVFGGGTKVTVLGAA ?
Result: 7.29
